Target: T1, human BCMA protein (human, UniProt Q02223 1-54, limits assumed)
T1 sequence: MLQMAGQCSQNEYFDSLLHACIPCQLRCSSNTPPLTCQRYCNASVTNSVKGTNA
Assay: affinity to human BCMA protein, method not stated
Quantity Name: Kd (nM)
Give bare numbers, in nM.

Binder: BCMA targeting trispecific protein 02G01 (other, trispecific; not shown: the C-terminal 6xHis tag follows those missing domains and is left out) VHH: EVQLVESGGGLVQPGRSLTLSCAASTNIFSINPMGWYRQAPGKQRELVAAIHGFDTLYADSVKGRFTISRDNAKNSIYLQMNSLRPEDTALYYCNKVPWGDYHPRNVSWGQGTQVTVSS
Kd [nM]: 16.3

Please examine the following record next.
# get_value(readout='Kd', item= BCMA targeting trispecific protein 01F08 (other, trispecific; not shown: the C-terminal 6xHis tag follows those domains and is left out) VHH: EVQLVESGGGLVQPGRSLTLSCAASTNITSVSPMGWYRQAPGKQRELVAAIHGPSTLYADSVKGRFTISRDNAKNSIYLQMNSLRPEDTALYYCNKVPWGDYHPTNVYWGQGTQVTVSS )
21.4
